Origin of measurements: patent US10544186B2

experiment: Solubility of the amide linking reagents in organic solvents; assay type: physicochemical; details: organic solvent or mixture, thermodynamic from solid; solvent CH2Cl2; read-out: solubility in CH2Cl2
Recorded log10(solubility) for the following molecules
Values reflect log10 of reported solubility (mg/mL).

Example entries and their recorded answers appear below.
molecule: CN(C)C(On1nnc2ccccc2c1=O)=[N+](C)C.F[B-](F)(F)F [HDBTU, reference compound]
log10(solubility): 0.57

molecule: F[P-](F)(F)(F)(F)F.c1cnc2c(c1)nnn2O[P+](N1CCCC1)(N1CCCC1)N1CCCC1 [PyAOP, reference compound]
log10(solubility): 3.00

molecule: [O-][n+]1nn(C(N2CCCC2)=[N+]2CCCC2)c2ccccc21
log10(solubility): 1.76

molecule: CN(C)C(Sc1cccc[n+]1[O-])=[N+](C)C.F[P-](F)(F)(F)(F)F [HOTT, reference compound]
log10(solubility): 1.77

molecule: CCOC(=O)C(C#N)=NO[C+](N(C)C)N1CCOCC1.F[P-](F)(F)(F)(F)F [COMU, reference compound]
log10(solubility): 1.91

For F[P-](F)(F)(F)(F)F.[O-][n+]1nn(C(N2CCCC2)=[N+]2CCCC2)c2ccccc21 [HBPyU, reference compound] , what is its reported log10(solubility)?
1.83

Also `CCOC(=O)/C(C#N)=N/OC(N1CCOCC1)=[N+](C)C` ?
2.26

====

assay: Solubility of the amide linking reagents in organic solvents; type: physicochemical; details: organic solvent or mixture, thermodynamic from solid; solvent THF; read-out: solubility in THF
reportedProperty: solubility (µg/mL)
Express it in µg/mL; write the number only.

compound: F[P-](F)(F)(F)(F)F.c1cnc2c(c1)nnn2O[P+](N1CCCC1)(N1CCCC1)N1CCCC1 [PyAOP, reference compound]
measurementUnit: µg/mL
testResult: 6000
--
compound: CCOC(=O)/C(C#N)=N/OC(N1CCOCC1)=[N+](C)C
measurementUnit: µg/mL
testResult: 349000
--
compound: [O-][n+]1nn(C(N2CCCC2)=[N+]2CCCC2)c2ccccc21
measurementUnit: µg/mL
testResult: 510000

# input for lookup
For CCOC(=O)C(C#N)=NO[C+](N(C)C)N1CCOCC1.F[P-](F)(F)(F)(F)F [COMU, reference compound] , what is its reported solubility?
4100

====

assay: Solubility of the amide linking reagents in organic solvents; type: physicochemical; settings: organic solvent or mixture, thermodynamic from solid; solvent Hexane; read-out: solubility in Hexane
Recorded solubility for the following compounds

Example entries and their recorded answers appear below.
compound: CCOC(=O)/C(C#N)=N/OC(N1CCOCC1)=[N+](C)C
solubility: 2100 µg/mL
--
compound: F[P-](F)(F)(F)(F)F.[O-][n+]1nn(C(N2CCCC2)=[N+]2CCCC2)c2ccccc21 [HBPyU, reference compound]
solubility: < 1200 µg/mL
--
compound: CN(C)C(On1nnc2ccccc2c1=O)=[N+](C)C.F[B-](F)(F)F [HDBTU, reference compound]
solubility: < 1200 µg/mL
--
compound: [O-][n+]1nn(C(N2CCCC2)=[N+]2CCCC2)c2ccccc21
solubility: < 1200 µg/mL

For CN(C)[P+](On1nnc2ccccc21)(N(C)C)N(C)C.F[P-](F)(F)(F)(F)F [BOP, reference compound] , what is its reported solubility?
< 1200 µg/mL

Also CN(C)C(Sc1cccc[n+]1[O-])=[N+](C)C.F[P-](F)(F)(F)(F)F [HOTT, reference compound] ?
< 1200 µg/mL

Also F[P-](F)(F)(F)(F)F.c1cnc2c(c1)nnn2O[P+](N1CCCC1)(N1CCCC1)N1CCCC1 [PyAOP, reference compound] ?
< 1200 µg/mL

Also CCOC(=O)C(C#N)=NO[C+](N(C)C)N1CCOCC1.F[P-](F)(F)(F)(F)F [COMU, reference compound] ?
< 1200 µg/mL
